All figures here come from ChEMBL document CHEMBL4373706.

Subject of test: Serine/threonine-protein kinase PLK3 (Homo sapiens, UniProt Q9H4B4)
Sequence (Q9H4B4 whole entry): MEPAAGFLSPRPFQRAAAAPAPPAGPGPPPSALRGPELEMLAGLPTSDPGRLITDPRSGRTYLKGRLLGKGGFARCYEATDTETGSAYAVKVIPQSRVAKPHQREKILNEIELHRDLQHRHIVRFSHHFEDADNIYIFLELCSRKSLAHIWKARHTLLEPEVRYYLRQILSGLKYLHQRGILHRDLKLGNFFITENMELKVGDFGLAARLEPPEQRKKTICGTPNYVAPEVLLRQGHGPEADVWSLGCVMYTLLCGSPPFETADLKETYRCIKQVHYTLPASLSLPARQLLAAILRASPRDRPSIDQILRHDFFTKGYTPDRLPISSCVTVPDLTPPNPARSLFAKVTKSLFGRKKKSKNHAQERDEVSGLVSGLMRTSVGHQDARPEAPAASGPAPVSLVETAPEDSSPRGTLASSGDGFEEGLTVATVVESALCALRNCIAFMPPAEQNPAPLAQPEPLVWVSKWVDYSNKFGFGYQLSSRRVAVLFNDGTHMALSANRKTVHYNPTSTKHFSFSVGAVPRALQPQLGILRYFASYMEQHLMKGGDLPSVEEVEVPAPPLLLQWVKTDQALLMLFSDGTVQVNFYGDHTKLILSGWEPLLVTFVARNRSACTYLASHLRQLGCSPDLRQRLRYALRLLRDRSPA

| Input smiles | Kd / nM |
| --- | --- |
| O=C(Nc1ccc2cc(C(=O)Nc3nccs3)ccc2c1)c1ccc(Cl)c(Cl)c1 | 456 |

====

Assay method text: Half life in Sprague-Dawley rat at 10 mg/kg, iv administered […] by LC-MS/MS analysis
Assay type: ADME, organism-based
Test settings: in vivo
Assay endpoint: half-life (h)

| Input smiles | U | Numeric readout |
| --- | --- | --- |
| O=C(Nc1ccc2cc(C(=O)Nc3nccs3)ccc2c1)c1ccc(Cl)c(Cl)c1 | h | 16.2 |

====

Assay method text: Solubility of the compound in water
Format: physicochemical
Assay endpoint: solubility (µg/mL)

| Input smiles | Numeric readout |
| --- | --- |
| O=C(Nc1ccc2cc(C(=O)Nc3nccs3)ccc2c1)c1ccc(Cl)c(Cl)c1 | 9.6 |
